Quick reference for EC50 of peptide among some binders
# assayedSystem: T1, MAGE-A1 peptide on HLA-A*02:01 (human)
# T1 peptide: KVLEYVIKV
# methodSummary: JKR9 reporter + peptide-loaded T2, 16 h; full-length, on cells
Write the value in nM as a bare number.

Here are 2 binders together with their reported answers.
Query string: Please look up its EC50 of peptide: ht27M1240 (TCR, V domains shown) Valpha: GEDVEQSLFLSVREGDSSVINCTYTDSSMTYLYWYKQEPGAGLQLLTYIFSNMDMKQDQRLTVLLNKKDKHLSLRIADTQTGDSAIYFCAGSGGGTDKLIFGTGTRLQVFP Vbeta: GAVVSQHPSWVICKSGTSVKIECRSLDFQATTMFWYRQFPKQSLMLMATSNEGSKATYEQGVEKDKFLINHASLTLSTLTVTSAHPEDSSFYICSAREPGQGPYEQYFGPGTRLTVT
Result string: 110

Query string: Please look up its EC50 of peptide: ht27M1003 (TCR, V domains shown) Valpha: GEDVEQSLFLSVREGDSSVINCTYTDSSSTYLYWYKQEPGAGLQLLTYIFSNMDMKQDQRLTVLLNKKDKHLSLRIADTQTGDSAIYFCAGSGGGTDKLIFGTGTRLQVFP Vbeta: GAVVSQHPSWVICKSGTSVKIECRSLDFQATTMFWYRQFPKQSLMLMATSNEGSKATYEQGVEKDKFLINHASLTLSTLTVTSAHPEDSSFYICSAREPGSGPYEQYFGPGTRLTVT
Result string: 1170

// moving on: another record for EC50 of peptide
Query string: Please look up its EC50 of peptide: ht27M1245 (TCR, V domains shown) Valpha: GEDVEQSLFLSVREGDSSVINCTYTDSSQTYLYWYKQEPGAGLQLLTYIFSNMDMKQDQRLTVLLNKKDKHLSLRIADTQTGDSAIYFCAGSGGGTDKLIFGTGTRLQVFP Vbeta: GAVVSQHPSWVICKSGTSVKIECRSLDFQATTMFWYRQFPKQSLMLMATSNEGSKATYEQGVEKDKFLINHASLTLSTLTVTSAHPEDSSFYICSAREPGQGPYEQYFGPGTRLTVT
Result string: 554
